Numbers sourced from a melting point compilation (Tetko et al.).

Listing of recorded melting point by entry.

| smiles structure | melting point |
| --- | --- |
| COC(=O)c1ccc(CN2CCC(CO)CC2)cc1 | 54 to 56 °C |

Lookup: Which melting point is listed for O=C(O)C1CCN(CC(F)(F)F)CC1 ?
Found: 62 to 64 °C

Lookup: Name the reported melting point value associated with the compound O=C(O)CCNC(=O)CCC(=O)O
Found: 132 to 134 °C

Lookup: Returns the measured melting point for the input compound. Input: CCOC(=O)c1ccc(-n2ccnc2)c(N)c1
Found: 89 to 93 °C

Lookup: Which melting point is listed for COc1ccc2[nH]c(NCc3ccccc3)nc2c1 ?
Found: 179 to 181 °C

Lookup: Name the reported melting point value associated with the compound Clc1cncc(-n2cncn2)n1
Found: 109 to 111 °C

Lookup: Would you mind telling me what melting point value was observed for COC(=O)c1ccc(OCc2ccccc2)c(N)c1 ?
Found: 96 to 98 °C

---

Let's look at some compounds and their measured melting point.

| compound | melting point |
| --- | --- |
| O=C(Nc1ccccc1F)Nc1cccc2c1CCNC2 | 157 to 159 °C |
| CC(Oc1ccc(C=CC(=O)O)cc1F)c1ccccc1 (stereo not drawn) | 168 to 170 °C |

Lookup: Fill in the blank: the reported melting point of O=C(O)c1noc(-c2ccccc2Cl)n1 is ____.
Found: 119 to 121 °C

---

Recorded measurements of melting point, one per entry

| compound | melting point |
| --- | --- |
| Cc1cc(O)c([N+](=O)[O-])cc1S(=O)(=O)Cl | 63 to 65 °C |
| CSc1ccc(C(=O)O)o1 | 126 to 128 °C |
| COc1cc(I)c(Cl)cc1C(=O)O | 141 to 143 °C |
| O=C(Nc1cnccn1)C1CCCNC1 (stereo not given) | 141 to 143 °C |

Pending compound:
Lookup: Consider the compound shown here: O=C1Nc2cccc(I)c2C1=O What is its recorded melting point?
Found: 199 to 201 °C

---

We begin with a simple list: items and their reported melting point.

Lookup: Given the entry Nc1ccc(Cl)c(-n2nnnc2C2CC2)c1 , report its measured melting point.
Found: 135 to 137 °C

Lookup: Item NC(=O)CCc1ccc(N)cc1 has what recorded melting point?
Found: 131 to 133 °C

---

property: melting point

| compound | melting point |
| --- | --- |
| O=C(O)C(NCc1ccccc1)c1ccc(C(F)(F)F)cc1 (stereo not given) | 230 to 232 °C |
| NC1(CO)Cc2ccccc2C1 | 107 to 109 °C |
| COc1ccccc1NS(=O)(=O)c1cc(N)ccc1N1CCCCC1 | 169 to 171 °C |
| Cc1ccc(C)n1-c1ccc(Br)cc1 | 61 to 63 °C |
| COc1cc(OC)c(S(N)(=O)=O)cc1Br | 257 to 259 °C |
| CN(C)CC(N)=NO | 135 to 137 °C |

// below: melting point requested for another compound
Lookup: melting point lookup needed for O=C(Nc1nncs1)C1CCNCC1 , thanks.
Found: 202 to 204 °C

---

# melting point per record follows

| smiles structure | melting point |
| --- | --- |
| COc1ccc(C(=O)O)cc1S(=O)(=O)Nc1ccc(C)cc1 | 258 to 260 °C |
| O=C(Nc1cccc(Cl)c1)c1ccc(Cl)nc1 | 177 to 179 °C |
| CNC(=O)NC(=O)CCCCl | 122 to 124 °C |
| Cc1nn(Cc2c(Cl)cccc2Cl)c2sc(C(=O)O)cc12 | 282 to 284 °C |
| Nc1c(-c2ccccc2)ncn1C1CC1 | 148 to 150 °C |
| OCc1ccc(-n2ccnc2)nc1 | 128 to 130 °C |
| NCc1ccccc1CN1C(=O)NC2(CCCCC2)C1=O | 141 to 143 °C |
| CC(C)(C)NS(=O)(=O)c1cc(C(=O)O)ccc1F | 182 to 184 °C |
| OCCOc1ccc(Br)cc1 | 53 to 55 °C |

Lookup: Give the measured melting point of O=C(O)Cn1nccn1 .
Found: 129 to 131 °C
